Reported values of MC4R selectivity vs MC3R for individual entries
biological target: human MC4R receptor (human, UniProt P32245 1-332); assay: cell-based or functional assay
Sequence (P32245 whole entry): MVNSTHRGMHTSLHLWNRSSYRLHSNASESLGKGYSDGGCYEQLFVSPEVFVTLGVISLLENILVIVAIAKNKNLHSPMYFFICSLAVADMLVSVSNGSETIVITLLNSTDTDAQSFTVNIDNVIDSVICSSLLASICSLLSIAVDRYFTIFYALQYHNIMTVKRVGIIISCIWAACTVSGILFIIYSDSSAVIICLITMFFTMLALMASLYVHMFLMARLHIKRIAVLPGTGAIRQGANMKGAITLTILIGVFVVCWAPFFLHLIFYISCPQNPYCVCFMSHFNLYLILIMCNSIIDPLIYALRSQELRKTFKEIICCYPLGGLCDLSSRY
Positions of bridges follow the written chain, without caps; N, C: chain ends. Non-standard residues stand in square brackets, D forms with d. dPhe(4-Br) = N[C@H](Cc1ccc(Br)cc1)C(=O)O; Cit = NC(=O)NCCC[C@H](N)C(=O)O
Please respond with just the number, no unit label.

[[record]]
binder = "Ac-RC[dA]R[dPhe(4-Br)]RFC-NH2 (disulfide 2-8; SMILES CC(=O)N[C@@H](CCCNC(=N)N)C(=O)N[C@H]1CSSC[C@@H](C(N)=O)NC(=O)[C@H](Cc2ccccc2)NC(=O)[C@H](CCCNC(=N)N)NC(=O)[C@@H](Cc2ccc(Br)cc2)NC(=O)[C@H](CCCNC(=N)N)NC(=O)[C@@H](C)NC1=O) [CTX-1258]"
endpoint_value = 3.04

[[record]]
binder = "Ac-RC[dA]R[dPhe(4-Br)][Cit][dW]C-NH2 (disulfide 2-8; SMILES CC(=O)N[C@@H](CCCNC(=N)N)C(=O)N[C@H]1CSSC[C@@H](C(N)=O)NC(=O)[C@@H](Cc2c[nH]c3ccccc23)NC(=O)[C@H](CCCNC(N)=O)NC(=O)[C@@H](Cc2ccc(Br)cc2)NC(=O)[C@H](CCCNC(=N)N)NC(=O)[C@@H](C)NC1=O) [CTX-1253]"
endpoint_value = 0.53


// moving on: another record for MC4R selectivity vs MC3R
Consider the binder Ac-RC[dA]R[dPhe(4-Br)]R[dA]C-NH2 (disulfide 2-8; SMILES CC(=O)N[C@@H](CCCNC(=N)N)C(=O)N[C@H]1CSSC[C@@H](C(N)=O)NC(=O)[C@@H](C)NC(=O)[C@H](CCCNC(=N)N)NC(=O)[C@@H](Cc2ccc(Br)cc2)NC(=O)[C@H](CCCNC(=N)N)NC(=O)[C@@H](C)NC1=O) [CTX-1260] and give its measured MC4R selectivity vs MC3R.
0.05

Provenance of the data: patent US20240391954A1
